Origin of measurements: patent US10519099B2

ASSAY_SYSTEM: P. aeruginosa gyrase (Pseudomonas aeruginosa, UniProt P48372+Q9I7C2)
ASSAY_COMMENT: P. aeruginosa gyrase DNA supercoiling assay
SETTINGS: read-out: IC50 Pa gyrase (sc)
pIC50: −log10 of the molar value.
REPORTED_ENDPOINT: pIC50

COMPOUND	MEASURED_VALUE
CO[C@@H](C(N)=O)[C@H](NC(=O)c1ccc(NC(=O)c2ccc([N+](=O)[O-])cc2)cc1)C(=O)Nc1ccc(C(=O)Nc2ccc(C(=O)Nc3ccc(C(=O)O)cc3)c(O)c2OC(C)C)cc1 [Cys 861-2]	6.74
COC(C(N)=O)C(NC(=O)c1ccc(NC(=O)c2ccc([N+](=O)[O-])cc2)cc1)C(=O)Nc1ccc(C(=O)Nc2ccc(C(=O)Nc3ccc(C(=O)O)cc3OC(C)C)c(O)c2OC(C)C)cc1 (centres unmarked) [Cys 919-2]	6.47

====

Measured MIC accompanies every entry in the list below.
Test system: E. coli WT
ASSAY_COMMENT: MIC microdilution, E. coli WT
Format: cell-based, Escherichia coli
SETTINGS: Escherichia coli; Gram-negative set; read-out: MIC E. coli WT
REPORTED_ENDPOINT: MIC (µg/mL)

MOLECULE	MEASURE_UNIT	OP	MEASURED_VALUE
COC(C(N)=O)C(NC(=O)c1ccc(NC(=O)c2ccc([N+](=O)[O-])cc2)cc1)C(=O)Nc1ccc(C(=O)Nc2ccc(C(=O)Nc3ccc(C(=O)O)c(O)c3OC(C)C)c(O)c2OC(C)C)cc1 (stereo not drawn)	µg/mL	=	0.5
CCC(C)Oc1cc(C(=O)O)ccc1NC(=O)c1ccc(NC(=O)c2ccc(NC(=O)C(OC)C(NC(=O)c3ccc(NC(=O)c4ccc([N+](=O)[O-])cc4)cc3)C(=O)O)cc2)c(OC(C)C)c1O (stereo not drawn)	µg/mL	>	64
O=C(O)c1cn(C2CC2)c2cc(N3CCNCC3)c(F)cc2c1=O [CP, Ciprofloxacin, reference compound]	µg/mL	=	0.013
CCOc1cc(C(=O)O)ccc1NC(=O)c1ccc(NC(=O)c2ccc(NC(=O)C(NC(=O)c3ccc(NC(=O)c4ccc([N+](=O)[O-])cc4)cc3)C(OC)C(N)=O)cc2)c(OC(C)C)c1O (stereo not drawn)	µg/mL	=	4
COC(C(N)=O)C(NC(=O)c1ccc(NC(=O)c2ccc([N+](=O)[O-])cc2)cc1)C(=O)Nc1ccc(C(=O)Nc2ccc(C(=O)Nc3ccc(C(=O)O)cc3OC(C)C)c(O)c2OC(C)C)cc1 (stereo not drawn)	µg/mL	=	0.5
COC(C(=O)O)C(NC(=O)c1ccc(NC(=O)c2ccc([N+](=O)[O-])cc2)cc1)C(=O)Nc1ccc(C(=O)Nc2ccc(C(=O)Nc3ccc(C(=O)O)cc3OC(C)C)c(O)c2OC(C)C)cc1 (stereo not drawn)	µg/mL	>	64

====

Test system: Acinetobacter baumannii DSM-30008
ASSAY_COMMENT: MIC microdilution, A. baumannii DSM-30008
Format: cell-based
SETTINGS: Acinetobacter baumannii, DSM30008; Gram-negative set; read-out: MIC A. baumannii DSM-30008

COMPOUND	OP	MIC / µg/mL
CCC(C)Oc1cc(C(=O)O)ccc1NC(=O)c1ccc(NC(=O)c2ccc(NC(=O)C(OC)C(NC(=O)c3ccc(NC(=O)c4ccc([N+](=O)[O-])cc4)cc3)C(=O)O)cc2)c(OC(C)C)c1O (stereo not drawn) [Cys 934-2]	>	64
COC(C(N)=O)C(NC(=O)c1ccc(NC(=O)c2ccc([N+](=O)[O-])cc2)cc1)C(=O)Nc1ccc(C(=O)Nc2ccc(C(=O)Nc3ccc(C(=O)O)c(O)c3OC(C)C)c(O)c2OC(C)C)cc1 (stereo not drawn) [Cys 935-2]	=	2
CCOc1cc(C(=O)O)ccc1NC(=O)c1ccc(NC(=O)c2ccc(NC(=O)C(NC(=O)c3ccc(NC(=O)c4ccc([N+](=O)[O-])cc4)cc3)C(OC)C(N)=O)cc2)c(OC(C)C)c1O (stereo not drawn) [Cys 905-2]	=	64
COC(C(N)=O)C(NC(=O)c1ccc(NC(=O)c2ccc([N+](=O)[O-])cc2)cc1)C(=O)Nc1ccc(C(=O)Nc2ccc(C(=O)Nc3ccc(C(=O)O)cc3OC(C)C)c(O)c2OC(C)C)cc1 (stereo not drawn) [Cys 919-2]	=	8
COC(C(=O)O)C(NC(=O)c1ccc(NC(=O)c2ccc([N+](=O)[O-])cc2)cc1)C(=O)Nc1ccc(C(=O)Nc2ccc(C(=O)Nc3ccc(C(=O)O)cc3OC(C)C)c(O)c2OC(C)C)cc1 (stereo not drawn) [Cys 920-1]	>	64
O=C(O)c1cn(C2CC2)c2cc(N3CCNCC3)c(F)cc2c1=O [CP, Ciprofloxacin, reference compound]	=	0.8

====

System: Cystobacter velatus MCy8071
ASSAY_COMMENT: Antibiotic resistance of producer strain MCy8071
Type: cell-based
SETTINGS: final concentration 50 μg ml^−1
Procedure: MCy8071 is resistant against the following antibiotics: ampicillin, gentamycin, hygromycin, polymycin, bacitracin, spectinomycin, neomycin, and fusidinic acid. Weak growth is possible with cephalosporin and kasugamycin and no growth is possible with thiostrepton, trimethoprin, kanamycin, and oxytetracycline (final concentration of all antibiotics was adjusted to 50 μg ml^−1).
REPORTED_ENDPOINT: growth of strain MCy8071 in presence of antibiotic

SMI	MEASURED_VALUE
CN[C@@H]1[C@H](O)[C@H](NC)[C@H]2O[C@@]3(O)C(=O)C[C@@H](C)O[C@H]3O[C@@H]2[C@H]1O	resistant
CC1(C)S[C@@H]2[C@H](NC(=O)[C@H](N)c3ccccc3)C(=O)N2[C@H]1C(=O)O	resistant

====

Measured MIC E. coli WT-III [marRΔ74bp] accompanies every entry in the list below.
Tested on: E. coli WT-III [marRΔ74bp]
ASSAY_COMMENT: MIC microdilution, E. coli WT-III [marRΔ74bp]
Assay type: cell-based, Escherichia coli
SETTINGS: Gram-negative set
Experimental: Indicator strains used in susceptibility assays were either part of our strain collection or purchased from the German Collection of Microorgansims and Cell Cultures (DSMZ) or from the American Type Culture Collection (ATCC). […] MIC values were determined in standardized microdilution assays. […] Growth inhibition was assessed by visual inspection and the MIC was defined as the lowest concentration of compound that inhibited visible growth.
REPORTED_ENDPOINT: MIC E. coli WT-III [marRΔ74bp] (µg/mL)

COMPOUND	ASSAY_SYSTEM	OP	MEASURED_VALUE
CCC(C)Oc1cc(C(=O)O)ccc1NC(=O)c1ccc(NC(=O)c2ccc(NC(=O)C(OC)C(NC(=O)c3ccc(NC(=O)c4ccc([N+](=O)[O-])cc4)cc3)C(=O)O)cc2)c(OC(C)C)c1O (stereo not shown) [Cys 934-2]	E. coli WT-III [marRΔ74bp]	>	64
COC(C(N)=O)C(NC(=O)c1ccc(NC(=O)c2ccc([N+](=O)[O-])cc2)cc1)C(=O)Nc1ccc(C(=O)Nc2ccc(C(=O)Nc3ccc(C(=O)O)cc3OC(C)C)c(O)c2OC(C)C)cc1 (stereo not shown) [Cys 919-2]	E. coli WT-III [marRΔ74bp]	>	64
CO[C@@H](C(N)=O)[C@H](NC(=O)c1ccc(NC(=O)c2ccc([N+](=O)[O-])cc2)cc1)C(=O)Nc1ccc(C(=O)Nc2ccc(C(=O)Nc3ccc(C(=O)O)cc3)c(O)c2OC(C)C)cc1 [Cys 861-2]	E. coli WT-III [marRΔ74bp]	=	0.5
COC(C(=O)O)C(NC(=O)c1ccc(NC(=O)c2ccc([N+](=O)[O-])cc2)cc1)C(=O)Nc1ccc(C(=O)Nc2ccc(C(=O)Nc3ccc(C(=O)O)cc3OC(C)C)c(O)c2OC(C)C)cc1 (stereo not shown) [Cys 920-1]	E. coli WT-III [marRΔ74bp]	>	64
O=C(O)c1cn(C2CC2)c2cc(N3CCNCC3)c(F)cc2c1=O [CP, Ciprofloxacin, reference compound]	E. coli WT-III [marRΔ74bp]	=	0.1
CCOc1cc(C(=O)O)ccc1NC(=O)c1ccc(NC(=O)c2ccc(NC(=O)C(NC(=O)c3ccc(NC(=O)c4ccc([N+](=O)[O-])cc4)cc3)C(OC)C(N)=O)cc2)c(OC(C)C)c1O (stereo not shown) [Cys 905-2]	E. coli WT-III [marRΔ74bp]	>	64
COC(C(N)=O)C(NC(=O)c1ccc(NC(=O)c2ccc([N+](=O)[O-])cc2)cc1)C(=O)Nc1ccc(C(=O)Nc2ccc(C(=O)Nc3ccc(C(=O)O)c(O)c3OC(C)C)c(O)c2OC(C)C)cc1 (stereo not shown) [Cys 935-2]	E. coli WT-III [marRΔ74bp]	=	2

====

System: Cystobacter velatus MCy8071
ASSAY_COMMENT: Antibiotic resistance of producer strain MCy8071
Type: cell-based
SETTINGS: final concentration 50 μg ml^−1
Experimental: MCy8071 is resistant against the following antibiotics: ampicillin, gentamycin, hygromycin, polymycin, bacitracin, spectinomycin, neomycin, and fusidinic acid. Weak growth is possible with cephalosporin and kasugamycin and no growth is possible with thiostrepton, trimethoprin, kanamycin, and oxytetracycline (final concentration of all antibiotics was adjusted to 50 μg ml^−1).
Positions of bridges follow the written chain, without caps; N, C: chain ends. Non-standard residues stand in square brackets, D forms with d. Residues, ends and D or L forms follow the SMILES beside them. *: point of attachment. Ileψ(thiazoline)Cys = CC[C@H](C)[C@H](N)C1=N[C@H](C(=O)*)CS1; dOrn = NCCC[C@@H](N)C(=O)O
REPORTED_ENDPOINT: growth of strain MCy8071 in presence of antibiotic

COMPOUND	MEASURED_VALUE
CC[C@H](C)[C@H](N)C1=N[C@H](C(=O)N[C@@H](CC(C)C)C(=O)N[C@H](CCC(=O)O)C(=O)N[C@H](C(=O)N[C@H]2CCCCNC(=O)[C@H](CC(N)=O)NC(=O)[C@@H](CC(=O)O)NC(=O)[C@H](Cc3cnc[nH]3)NC(=O)[C@@H](Cc3ccccc3)NC(=O)[C@H]([C@@H](C)CC)NC(=O)[C@@H](CCCN)NC2=O)[C@@H](C)CC)CS1 [bacitracin] ({Ileψ(thiazoline)Cys}-L[dE]IK[dOrn]I[dF]H[dD]N; lactam 4-C)	resistant
CC(=O)O[C@H]1C[C@@]2(C)[C@@H](C[C@@H](O)[C@H]3[C@@]4(C)CC[C@@H](O)[C@@H](C)[C@@H]4CC[C@@]32C)/C1=C(\CCC=C(C)C)C(=O)O [fusidinic acid]	resistant
